# DGKa (Homo sapiens (Human), UniProt P23743): IC50 values follow
# Sequence (P23743 whole entry): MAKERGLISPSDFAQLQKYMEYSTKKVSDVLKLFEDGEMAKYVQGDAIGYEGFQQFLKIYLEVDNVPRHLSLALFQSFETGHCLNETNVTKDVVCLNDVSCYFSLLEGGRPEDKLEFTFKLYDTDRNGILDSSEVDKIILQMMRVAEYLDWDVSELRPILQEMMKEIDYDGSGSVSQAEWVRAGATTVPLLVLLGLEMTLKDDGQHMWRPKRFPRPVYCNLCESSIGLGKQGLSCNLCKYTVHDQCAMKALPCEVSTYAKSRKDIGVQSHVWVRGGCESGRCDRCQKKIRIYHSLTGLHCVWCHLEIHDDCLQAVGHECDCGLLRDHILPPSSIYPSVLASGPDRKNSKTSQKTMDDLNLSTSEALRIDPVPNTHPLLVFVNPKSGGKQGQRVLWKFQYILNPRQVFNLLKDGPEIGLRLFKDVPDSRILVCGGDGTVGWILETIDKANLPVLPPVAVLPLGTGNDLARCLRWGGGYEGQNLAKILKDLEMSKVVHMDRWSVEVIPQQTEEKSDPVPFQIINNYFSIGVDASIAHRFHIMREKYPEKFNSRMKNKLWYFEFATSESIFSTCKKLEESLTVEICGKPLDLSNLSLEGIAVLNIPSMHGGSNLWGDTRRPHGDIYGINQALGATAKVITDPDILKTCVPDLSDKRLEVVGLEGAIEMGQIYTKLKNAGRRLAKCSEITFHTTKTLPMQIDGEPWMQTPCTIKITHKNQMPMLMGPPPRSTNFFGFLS

# MOLECULE, VALUE_TYPE, RESULT
records = [
    ("CC[C@H]1CN([C@@H]2CCCCc3cc(C(F)(F)F)ccc32)[C@H](CC)CN1c1nc(=O)n(C)c2ccc(C#N)nc12", "IC50", "0.1 to 1 µM"),
    ("CC[C@@H]1C[C@H](c2nc3cc(C)ccc3o2)CCN1c1nc(=O)n(C)c2cc(O[C@@H]3CCOC3)c(Cl)cc12", "IC50", "0.1 to 1 µM"),
    ("CC[C@H]1CN([C@H](c2ccc(SC(F)(F)F)cc2)c2nc(C3CC3)cs2)[C@H](CC)CN1c1nc(=O)n(C)c2ccc(C#N)nc12", "IC50", "< 0.1 µM"),
    ("CC[C@H]1CN([C@@H](CC)c2nc(C3CC3)no2)[C@H](CC)CN1c1nc2nncn2c2ccc(C#N)nc12", "IC50", "< 0.1 µM"),
]

Entry CCC(c1ccc(C23CC(C2)C3)nc1)N1C[C@H](CC)N(c2nc3nncn3c3ccc(C#N)nc23)C[C@H]1CC (stereo partly drawn) : IC50 on DGKa (Homo sapiens (Human), UniProt P23743) = < 0.1 µM

For the molecule CC[C@@H]1C[C@@]2(CCN1c1nc(=O)n(C)c3ccc(C#N)nc13)CC(c1ccc(OC(F)(F)F)cc1)=NO2 (stereo in doubt) , the measured IC50 on DGKa (Homo sapiens (Human), UniProt P23743) was 0.1 to 1 µM
